Numbers sourced from ChEMBL document CHEMBL1133503.

assay: Relative cytotoxicity is expressed as the ratio of the IC50 values of the corresponding sulfide to sulfoxide or to sulfone; type: functional, Cricetulus griseus
For each entry below, report its Cytotoxicity value.

Prompt: Given the compound Cl.[O-][S+](c1ccc(Nc2c3ccccc3nc3ccccc23)cc1)c1ccc(N(CCCl)CCCl)cc1 (centres undefined) , what is its reported Cytotoxicity?
Response: 0.07

Prompt: Given the compound `Cl.ClCCN(CCCl)c1ccc(Sc2ccc(Nc3c4ccccc4nc4ccccc34)cc2)cc1` , what is its reported Cytotoxicity?
Response: 1

Prompt: Given the compound `O=[N+]([O-])c1ccc(Sc2ccc(N(CCCl)CCCl)cc2)cc1` , what is its reported Cytotoxicity?
Response: 1

Prompt: Given the compound `O=[N+]([O-])c1ccc(S(=O)(=O)c2ccc(N(CCCl)CCCl)cc2)cc1` , what is its reported Cytotoxicity?
Response: 0.08

Prompt: Given the compound `Nc1ccc(Sc2ccc(N(CCCl)CCCl)cc2)cc1` , what is its reported Cytotoxicity?
Response: 1

Prompt: Given the compound `Nc1ccc(S(=O)(=O)c2ccc(N(CCCl)CCCl)cc2)cc1` , what is its reported Cytotoxicity?
Response: 0.09

Prompt: Given the compound Nc1ccc([S+]([O-])c2ccc(N(CCCl)CCCl)cc2)cc1 (centres undefined) , what is its reported Cytotoxicity?
Response: 0.08

Prompt: Given the compound `Cl.O=S(=O)(c1ccc(Nc2c3ccccc3nc3ccccc23)cc1)c1ccc(N(CCCl)CCCl)cc1` , what is its reported Cytotoxicity?
Response: 0.09

Prompt: Given the compound O=[N+]([O-])c1ccc([S+]([O-])c2ccc(N(CCCl)CCCl)cc2)cc1 (centres undefined) , what is its reported Cytotoxicity?
Response: 0.1

* * *

assay: Concentration required to reduce cell survival to 10% of controls using V-79 cells in the clonogenic assay, in aerobic conditions; assay type: functional; settings: Cricetulus griseus, V79
Lab note: cut-off is 2 mM. Strictly less in IC90 is 1 (yes). Exactly 2 mM or more is 0 (no).

Prompt: Threshold test, IC90 < 2 mM: `[O-][S+](c1ccc(NCCCl)cc1)c1ccc(NCCCl)cc1`
Response: 1 (yes)

Prompt: Threshold test, IC90 < 2 mM: `[O-][S+](c1ccc(N(CCCl)CCCl)cc1)c1ccc(N(CCCl)CCCl)cc1`
Response: 0 (no)

Prompt: Threshold test, IC90 < 2 mM: [O-][s+]1c2ccccc2c2cc(N(CCCl)CCCl)ccc21 (stereo not given)
Response: 1 (yes)

Prompt: Threshold test, IC90 < 2 mM: `[O-][s+]1c2ccc(N(CCCl)CCCl)cc2c2cc(N(CCCl)CCCl)ccc21`
Response: 0 (no)
